Source: patent US20250320278A1

# Measured target: SARS-CoV-2 N protein RNA-binding domain (SARS-CoV-2, UniProt P0DTC9 44-180)
# Method notes: Octet, KD (nM) heat map
Endpoint name: binding result

{"Binder": "NP3-B12 (antibody, V domains shown) VH: EVQLQQSGAELMKPGASVKISCKATGYTFSSYWIEWVKQRPGHGLEWIGEFFPGSGNTNYNEKFKGKATFTADTSSNTAYMQLSSLTSEDSAVYYCARRGLYDGYYVRYFDVWGAGTTVTVSS VL: DIVLTQSPASLAVSLGQRATISCKASQSVDYDGYSYMNWYQQKPGQPPKLLIYAASNLESGIPARFSGSGSGTDFTLNIHPVEEEDAATYYCQQSNADPFTFGGGTKLELK", "Observed result": "no binding"}
{"Binder": "NP3-C9 (antibody, V domains shown) VH: QIQLVQSGPELKKPGETVKISCKASGYTFTDYSIHWVKQAPGKDLKWVGWINTETGEPTYADDFEGRFAFSLETSASTAFLQINNLKNEDTATYFCSRGAATGFWGQGTTLTVSS VL: DIVLTQSPASLAVSLGQRATISCKASQSVDYDGDSYMNWYQQKPGQPPKLLIYVASNLESGIPARFSGSGSGTDFTLNIHPVEDEDAATYYCQQTNEDPLTFGAGTKLELK", "Observed result": "no binding"}
{"Binder": "NP3-A7 (antibody, V domains shown) VH: QIQLVQSGAELVKPGASVKLSCTASGFNIKDTYIHWVRQRPEQGLEWIGRIDPANGDTKYDPKFQDKATLIADTSSNTAYLQLGSLTSEDTAVYYCARYRIYYFDYWGQGTTLTVSS VL: DIQMTQSPASVPVTPGESVSISCRSSKSLLHSNGNTYVYWFLQRPGQSPRLLIYRMSNLASGVPDRFSGSGSGTAITLRISRVEAEDVGVYSCMQHLEYPLTFGAGTKLEIK", "Observed result": "no binding"}
